This collection of values is drawn from the supplement of paper PMC10065799.

study-target: FGFR3 (UniProt P22607)
Sequence (P22607 whole entry, looked up): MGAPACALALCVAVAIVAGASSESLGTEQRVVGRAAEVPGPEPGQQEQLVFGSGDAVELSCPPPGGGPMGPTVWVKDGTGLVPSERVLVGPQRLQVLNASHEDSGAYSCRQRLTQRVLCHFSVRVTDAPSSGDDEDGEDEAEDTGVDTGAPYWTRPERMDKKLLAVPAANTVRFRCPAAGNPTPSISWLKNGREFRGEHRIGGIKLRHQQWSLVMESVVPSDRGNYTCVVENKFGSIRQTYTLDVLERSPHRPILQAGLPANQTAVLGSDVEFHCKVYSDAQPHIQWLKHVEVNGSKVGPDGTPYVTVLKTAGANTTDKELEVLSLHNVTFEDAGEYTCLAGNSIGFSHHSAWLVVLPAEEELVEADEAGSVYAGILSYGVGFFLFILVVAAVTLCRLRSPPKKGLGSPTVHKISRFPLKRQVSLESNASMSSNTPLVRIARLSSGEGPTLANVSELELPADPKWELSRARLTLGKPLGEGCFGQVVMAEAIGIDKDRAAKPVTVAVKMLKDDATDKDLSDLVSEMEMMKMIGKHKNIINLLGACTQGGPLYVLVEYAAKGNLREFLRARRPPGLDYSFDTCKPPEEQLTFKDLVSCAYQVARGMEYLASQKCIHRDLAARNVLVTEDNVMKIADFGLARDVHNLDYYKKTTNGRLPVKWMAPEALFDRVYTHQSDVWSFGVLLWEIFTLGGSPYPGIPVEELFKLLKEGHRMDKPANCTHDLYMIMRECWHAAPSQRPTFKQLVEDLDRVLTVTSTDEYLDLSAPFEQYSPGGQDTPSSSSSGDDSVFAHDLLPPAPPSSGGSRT
experiment-description: phosphorylation enrichment, bacterial display (enrichment ratio); higher = better substrate or ligand; peptides without Tyr show the background;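 also: 11-residue human phosphosite peptides and single-mutation variants displayed on the E. coli surface, counted by deep sequencing, each peptide's frequency after selection divided by its frequency in the unselected input library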;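 also: frequency after pTyr selection over input frequency; kinase dosed for 20-30% of maximal phosphorylation in three min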
Kindly state phosphorylation enrichment for each of the entries shown.
The response must contain the number and no unit.

Challenge: Enter reported phosphorylation enrichment observed with FGFR3 (UniProt P22607) for EVDETYVPKEF [ALB_Y521]
Response given: 0.791

Challenge: Enter reported phosphorylation enrichment observed with FGFR3 (UniProt P22607) for AFSLKYEQQTQ [SYTL4_Y366]
Response given: 0.841

Challenge: Enter reported phosphorylation enrichment observed with FGFR3 (UniProt P22607) for AAPAAHDAADT [GAMT_Y27_Y27H]
Response given: 0.452

Challenge: Enter reported phosphorylation enrichment observed with FGFR3 (UniProt P22607) for PFQGAYLEINK [MYO1B_Y967]
Response given: 0.763

Challenge: Enter reported phosphorylation enrichment observed with FGFR3 (UniProt P22607) for TTICKYSTPME [GUCY2C_Y839]
Response given: 0.567

Challenge: Enter reported phosphorylation enrichment observed with FGFR3 (UniProt P22607) for SLDHPYEKPRK [INAVA_Y333]
Response given: 0.421

Challenge: Enter reported phosphorylation enrichment observed with FGFR3 (UniProt P22607) for HNMPIYEGFAL [ACTA1_Y168_V165M_YF]
Response given: 0.786

Challenge: Enter reported phosphorylation enrichment observed with FGFR3 (UniProt P22607) for MANYVYKAGPS [MAML2_Y515_M514V]
Response given: 0.508

Challenge: Enter reported phosphorylation enrichment observed with FGFR3 (UniProt P22607) for ESMQSYDLDYP [UNC13B_Y243_D238E]
Response given: 0.686

Challenge: Enter reported phosphorylation enrichment observed with FGFR3 (UniProt P22607) for SFTDPYAQPSL [KMT2D_Y2378_P2382S_YF]
Response given: 0.67

Challenge: Enter reported phosphorylation enrichment observed with FGFR3 (UniProt P22607) for SQQTYYPVSNM [ABCD1_Y181_R182P]
Response given: 10.5

Challenge: Enter reported phosphorylation enrichment observed with FGFR3 (UniProt P22607) for KDHPDYKFQRR [SOX10_Y171_P175R_YF]
Response given: 0.423

Challenge: Enter reported phosphorylation enrichment observed with FGFR3 (UniProt P22607) for RGDTVYTVNRM [KBTBD13_Y404]
Response given: 1.21

Challenge: Enter reported phosphorylation enrichment observed with FGFR3 (UniProt P22607) for SMEMKYLEEKN [ZAP70_Y451_G448E]
Response given: 1.07
